The reported measurements were obtained from patent EP1899377B1.

# koff listing for each entry below
Molecular target: T1, GST-human NOGO-A56 (human, UniProt Q9NQC3 586-785)
T1 construct: GST-tagged fusion expressed in E. coli BL21 from pGEX-6P1; also called hNOGO; human NOGO 5+6 GST; not shown: Glutathione S-transferase tag encoded by vector pGEX-6P1 (N-terminal, with vector linker)
T1 sequence: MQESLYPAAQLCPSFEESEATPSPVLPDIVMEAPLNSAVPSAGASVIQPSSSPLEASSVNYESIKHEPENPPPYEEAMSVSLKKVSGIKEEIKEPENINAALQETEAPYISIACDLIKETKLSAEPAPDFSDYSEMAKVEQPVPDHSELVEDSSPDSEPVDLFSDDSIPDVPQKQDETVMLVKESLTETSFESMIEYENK
Assay: SPR off-rate ranking, supernatant from small-scale transient transfection over immobilised GST-human NOGO-A56; single experiment
Give just the number in s⁻¹; leave the unit off.

binder	koff / s⁻¹
H22Lc (antibody, human IgG1, kappa, V domains shown) VH: QVQLVQSGAEVKKPGASVKVSCKASGYTFTSYWMHWVKQRPGQGLEWIGNINPSNGGTNYNEKFKSKATMTRDTSTSTAYMELSSLRSEDTAVYYCELGQGYWGQGTLVTVSS VL: DIVITQDELSNPVTSGESVSISCRSSKSLLYKDGKTYLNWFLQRPGQSPQLLIYLMSTRASGVSDRFSGSGSGTDFTLEISRVKAEDVGVYYCQQLVEYPLTFGAGTKLELKR	0.00467
H21L13 (antibody, human IgG1, kappa, V domains shown) VH: QVQLVQSGAEVKKPGASVKVSCKASGYTFTSYWMHWVRQRPGQGLEWIGNINPSNGGTNYNEKFKSKATMTRDTSTSTAYMELSSLRSEDTAVYYCELGQGYWGQGTLVTVSS VL: DIVMTQSPLSLPVTLGQPASISCRSSKSLLYKDGKTYLNWFQQRPGQSPQLLIYLMSTRASGVPDRFSGGGSGTDFTLKISRVEAEDVGVYYCQQLVEYPLTFGQGTKLEIKR	0.012

Here's the next entry for you.
What does the record list as koff for H19L16 (antibody, human IgG1, kappa, V domains shown) VH: QVQLVQSGAEVKKPGASVKVSCKASGYTFTSYWMHWVRQRPGQGLEWIGNINPSNGGTNYNEKFKSRATMTRDTSTSTAYMELSSLRSEDTAVYYCELGQGYWGQGTLVTVSS VL: DIVMTQSPLSNPVTLGQPVSISCRSSKSLLYKDGKTYLNWFLQRPGQSPQLLIYLMSTRASGVPDRFSGGGSGTDFTLKISRVEAEDVGVYYCQQLVEYPLTFGQGTKLEIKR ?
0.00873
